The measured values listed here are drawn from paper PMC5063126.

STUDY_TARGET: Bcl-xL (UniProt Q07817)
METHOD_DESCRIPTION: not stated; fluorescently labelled peptide with Bcl-xL; data in Table S4
Ends that are not written are not given here. fluorophore = not defined here

| BINDER | Kd / nM |
| --- | --- |
| DC(fluorophore)AEDIGVNIARHLAQVGDSIDRSI (reading uncertain; also: fluorophore not named) [LOV-BID peptide] | 46 |
